Target: BACE1 ECD (as used in the enzyme activity assay) (UniProt P56817 22-457, limits assumed)
Sequence (P56817 22-457 limits assumed): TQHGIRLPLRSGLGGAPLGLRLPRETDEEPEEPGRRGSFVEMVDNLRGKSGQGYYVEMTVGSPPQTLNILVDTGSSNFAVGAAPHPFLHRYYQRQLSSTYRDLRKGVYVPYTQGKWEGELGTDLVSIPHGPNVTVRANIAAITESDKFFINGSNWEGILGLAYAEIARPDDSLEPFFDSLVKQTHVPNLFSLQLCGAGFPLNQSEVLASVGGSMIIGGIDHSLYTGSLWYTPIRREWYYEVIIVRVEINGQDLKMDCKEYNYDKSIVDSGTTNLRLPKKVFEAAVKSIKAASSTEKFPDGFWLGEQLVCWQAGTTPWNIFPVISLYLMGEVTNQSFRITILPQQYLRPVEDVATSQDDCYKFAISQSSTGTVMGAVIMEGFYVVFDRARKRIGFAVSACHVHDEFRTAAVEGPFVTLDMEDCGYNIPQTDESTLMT
Experiment: cell-based or functional assay
QUANTITY: EC50, HTRF long substrate assay

# BINDER, EC50, HTRF long substrate assay
rows = [
    ("5890 (antibody, V domains shown) VH: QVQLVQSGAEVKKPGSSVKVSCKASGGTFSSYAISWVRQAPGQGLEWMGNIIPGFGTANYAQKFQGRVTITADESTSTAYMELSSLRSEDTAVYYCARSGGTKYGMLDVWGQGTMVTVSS VL: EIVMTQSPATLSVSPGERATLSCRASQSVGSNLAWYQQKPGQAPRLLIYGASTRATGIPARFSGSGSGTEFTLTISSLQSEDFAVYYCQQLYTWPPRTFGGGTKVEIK", "4.06 nM"),
]

Turning now to a further binder:
Sure, the documented EC50, HTRF long substrate assay for 5892 (antibody, V domains shown) VH: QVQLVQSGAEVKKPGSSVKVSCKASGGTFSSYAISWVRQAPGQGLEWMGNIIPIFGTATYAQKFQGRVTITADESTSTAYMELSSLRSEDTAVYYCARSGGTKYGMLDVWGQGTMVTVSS VL: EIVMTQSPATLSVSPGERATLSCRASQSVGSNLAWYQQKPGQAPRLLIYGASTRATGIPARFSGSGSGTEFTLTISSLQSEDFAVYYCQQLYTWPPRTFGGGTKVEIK is 1.19 nM
